Data provenance: the supplement of paper PMC10307832

Overview of recorded relative viability for various compounds
- System: NCI-H3122
- Protocol: relative viability (nuclei count vs DMSO), 5 days (fraction); higher = more cells survive
- Assay Conditions: first compound 0.4 µM
Keep it simple and answer with nothing but the number.

These solved cases illustrate the format of a correct answer.
compound="Clc1ccc(Nc2nnc(Cc3ccncc3)c3ccccc23)cc1 [Vatalanib] + Nc1nc2[nH]cc(CCc3ccc(C(=O)N[C@@H](CCC(=O)O)C(=O)O)cc3)c2c(=O)[nH]1 [Pemetrexed] (partner 0.2 µM)" measured_quantity="relative viability" reported_result=0.191
compound="COc1cc(N2CCC(C(N)=O)CC2)ccc1Nc1nc(N)c(Cl)c(Nc2ccccc2S(=O)(=O)C(C)C)n1 [HG-5-88-01] + Cc1nc(Nc2ncc(C(=O)Nc3c(C)cccc3Cl)s2)cc(N2CCN(CCO)CC2)n1 [Dasatinib] (partner 0.075 µM)" measured_quantity="relative viability" reported_result=0.149

Next:
Q: Assign relative viability to the following record: Clc1ccc(Nc2nnc(Cc3ccncc3)c3ccccc23)cc1 [Vatalanib] + CS(=O)(=O)CCNCc1ccc(-c2ccc3ncnc(Nc4ccc(OCc5cccc(F)c5)c(Cl)c4)c3c2)o1 [Lapatinib] (partner 2 µM)
A: 1.01

###

- System: NCI-H1793
- Protocol: relative viability (nuclei count vs DMSO), 5 days (fraction); higher = more cells survive
- Assay Conditions: first compound 1.265 µM
Measured Quantity: relative viability
// keep it numeric: no unit symbol after the value

Recorded relative viability, per entry:
compound="Clc1ccc(Nc2nnc(Cc3ccncc3)c3ccccc23)cc1 [Vatalanib] + Nc1ncn([C@H]2C[C@H](O)[C@@H](CO)O2)c(=O)n1 [Decitabine] (partner 2 µM)" reported_result=0.499
compound="COc1cc(N2CCC(C(N)=O)CC2)ccc1Nc1nc(N)c(Cl)c(Nc2ccccc2S(=O)(=O)C(C)C)n1 [HG-5-88-01] + C[C@]1(O)C[C@@H](c2nc(-c3ccc4ccc(-c5ccccc5)nc4c3)c3c(N)nccn32)C1 [Linsitinib] (partner 1 µM)" reported_result=0.809
compound="COc1cc(N2CCC(C(N)=O)CC2)ccc1Nc1nc(N)c(Cl)c(Nc2ccccc2S(=O)(=O)C(C)C)n1 [HG-5-88-01] + Nc1nc2[nH]cc(CCc3ccc(C(=O)N[C@@H](CCC(=O)O)C(=O)O)cc3)c2c(=O)[nH]1 [Pemetrexed] (partner 0.2 µM)" reported_result=0.692
compound="Clc1ccc(Nc2nnc(Cc3ccncc3)c3ccccc23)cc1 [Vatalanib] + Cc1nc(Nc2ncc(C(=O)Nc3c(C)cccc3Cl)s2)cc(N2CCN(CCO)CC2)n1 [Dasatinib] (partner 0.075 µM)" reported_result=0.349
compound="Clc1ccc(Nc2nnc(Cc3ccncc3)c3ccccc23)cc1 [Vatalanib] + NC(=O)Nc1cc(-c2cccc(F)c2)sc1C(=O)N[C@H]1CCCNC1 [AZD7762] (partner 0.2 µM)" reported_result=0.243

Alright, here's another compound for you.
Q: Output measured relative viability for this item: Clc1ccc(Nc2nnc(Cc3ccncc3)c3ccccc23)cc1 [Vatalanib] + COc1cc2c(Oc3ccc(NC(=O)C4(C(=O)Nc5ccc(F)cc5)CC4)cc3F)ccnc2cc1OCCCN1CCOCC1 [Foretinib] (partner 0.25 µM)
A: 0.663

###

- Tested on: LU99A
- Protocol: relative viability (nuclei count vs DMSO), 5 days (fraction); higher = more cells survive
- Assay Conditions: first compound 0.1265 µM
Measured Quantity: relative viability
Give the figure by itself; no unit, no explanation.

compound="COc1cc(N2CCC(C(N)=O)CC2)ccc1Nc1nc(N)c(Cl)c(Nc2ccccc2S(=O)(=O)C(C)C)n1 [HG-5-88-01] + C[C@@H](Oc1cc(-c2cnn(C3CCNCC3)c2)cnc1N)c1c(Cl)ccc(F)c1Cl [Crizotinib] (partner 1 µM)" reported_result=0.615

Here is another compound to look at.
Q: Fill in relative viability for record COc1cc(N2CCC(C(N)=O)CC2)ccc1Nc1nc(N)c(Cl)c(Nc2ccccc2S(=O)(=O)C(C)C)n1 [HG-5-88-01] + CS(=O)(=O)N1CCN(Cc2cc3nc(-c4cccc5[nH]ncc45)nc(N4CCOCC4)c3s2)CC1 [Pictilisib] (partner 1 µM)
A: 0.315

###

- System: COR-L 105
- Protocol: relative viability (nuclei count vs DMSO), 5 days (fraction); higher = more cells survive
- Assay Conditions: first compound 0.3162 µM
Listing of recorded relative viability by entry.

Example cases with answers are listed next.
molecule="CC(C)Oc1cc(Nc2nc(N[C@@H](C)c3ccc(F)cn3)ncc2Cl)n[nH]1 [AZ23] + Nc1nc2[nH]cc(CCc3ccc(C(=O)N[C@@H](CCC(=O)O)C(=O)O)cc3)c2c(=O)[nH]1 [Pemetrexed] (partner 0.2 µM)" measured_quantity="relative viability" reported_result=1.1
molecule="CC(C)Oc1cc(Nc2nc(N[C@@H](C)c3ccc(F)cn3)ncc2Cl)n[nH]1 [AZ23] + N=C(N)NC(=N)NCCc1ccccc1 [Phenformin] (partner 250 µM)" measured_quantity="relative viability" reported_result=0.508
molecule="CC(C)Oc1cc(Nc2nc(N[C@@H](C)c3ccc(F)cn3)ncc2Cl)n[nH]1 [AZ23] + CC(=O)Nc1cccc(-n2c(=O)n(C3CC3)c(=O)c3c(Nc4ccc(I)cc4F)n(C)c(=O)c(C)c32)c1 [Trametinib] (partner 0.02 µM)" measured_quantity="relative viability" reported_result=0.478
molecule="CC(C)Oc1cc(Nc2nc(N[C@@H](C)c3ccc(F)cn3)ncc2Cl)n[nH]1 [AZ23] + CS(=O)(=O)N1CCN(Cc2cc3nc(-c4cccc5[nH]ncc45)nc(N4CCOCC4)c3s2)CC1 [Pictilisib] (partner 1 µM)" measured_quantity="relative viability" reported_result=0.383

Shift focus to the following entry.
Q: Look up and state reported relative viability for CC(C)Oc1cc(Nc2nc(N[C@@H](C)c3ccc(F)cn3)ncc2Cl)n[nH]1 [AZ23] + Cc1nc(Nc2ncc(C(=O)Nc3c(C)cccc3Cl)s2)cc(N2CCN(CCO)CC2)n1 [Dasatinib] (partner 0.075 µM)
A: 0.341

###

The reader will find reported relative viability values listed item by item below.
- Tested on: NCI-H2347
- Protocol: relative viability (nuclei count vs DMSO), 5 days (fraction); higher = more cells survive
- Assay Conditions: first compound 1.265 µM
When you answer, write just the number.

// worked examples, relative viability included
compound="COc1cc(N2CCC(C(N)=O)CC2)ccc1Nc1nc(N)c(Cl)c(Nc2ccccc2S(=O)(=O)C(C)C)n1 [HG-5-88-01] + COc1cc2c(Oc3ccc(NC(=O)C4(C(=O)Nc5ccc(F)cc5)CC4)cc3F)ccnc2cc1OCCCN1CCOCC1 [Foretinib] (partner 0.25 µM)" reported_result=0.65
compound="Clc1ccc(Nc2nnc(Cc3ccncc3)c3ccccc23)cc1 [Vatalanib] + CCNC(=O)c1noc(-c2cc(C(C)C)c(O)cc2O)c1-c1ccc(CN2CCOCC2)cc1 [Luminespib] (partner 0.01 µM)" reported_result=0.549
compound="Clc1ccc(Nc2nnc(Cc3ccncc3)c3ccccc23)cc1 [Vatalanib] + CC(=O)c1c(C)c2cnc(Nc3ccc(N4CCNCC4)cn3)nc2n(C2CCCC2)c1=O [Palbociclib] (partner 0.5 µM)" reported_result=0.418
compound="COc1cc(N2CCC(C(N)=O)CC2)ccc1Nc1nc(N)c(Cl)c(Nc2ccccc2S(=O)(=O)C(C)C)n1 [HG-5-88-01] + O=C(c1cc(Cc2n[nH]c(=O)c3ccccc23)ccc1F)N1CCN(C(=O)C2CC2)CC1 [Olaparib] (partner 8 µM)" reported_result=0.539
compound="COc1cc(N2CCC(C(N)=O)CC2)ccc1Nc1nc(N)c(Cl)c(Nc2ccccc2S(=O)(=O)C(C)C)n1 [HG-5-88-01] + NC(=O)Nc1cc(-c2cccc(F)c2)sc1C(=O)N[C@H]1CCCNC1 [AZD7762] (partner 0.2 µM)" reported_result=0.718
compound="COc1cc(N2CCC(C(N)=O)CC2)ccc1Nc1nc(N)c(Cl)c(Nc2ccccc2S(=O)(=O)C(C)C)n1 [HG-5-88-01] + Nc1nc2[nH]cc(CCc3ccc(C(=O)N[C@@H](CCC(=O)O)C(=O)O)cc3)c2c(=O)[nH]1 [Pemetrexed] (partner 0.2 µM)" reported_result=0.424

Q: Report measured relative viability; entry is Clc1ccc(Nc2nnc(Cc3ccncc3)c3ccccc23)cc1 [Vatalanib] + N=C(N)NC(=N)NCCc1ccccc1 [Phenformin] (partner 250 µM)
A: 0.266

Q: Report relative viability for COc1cc(N2CCC(C(N)=O)CC2)ccc1Nc1nc(N)c(Cl)c(Nc2ccccc2S(=O)(=O)C(C)C)n1 [HG-5-88-01] + CC1(C)CCC(c2ccc(Cl)cc2)=C(CN2CCN(c3ccc(C(=O)NS(=O)(=O)c4ccc(N[C@H](CCN5CCOCC5)CSc5ccccc5)c(S(=O)(=O)C(F)(F)F)c4)cc3)CC2)C1 [Navitoclax] (partner 0.5 µM)
A: 0.696

###

- System: HCC-44
- Protocol: relative viability (nuclei count vs DMSO), 5 days (fraction); higher = more cells survive
- Assay Conditions: first compound 0.4 µM
Measured Quantity: relative viability
// no unit, no text: just the number

Here is how some compounds turned out for relative viability.
compound="C[C@@H]1CN(CC(=O)Nc2ccc3c(c2)Cc2cccc(-c4cc(=O)cc(N5CCOCC5)o4)c2S3)C[C@H](C)O1 + Nc1ncn([C@H]2C[C@H](O)[C@@H](CO)O2)c(=O)n1 [Decitabine] (partner 2 µM)" tested_system=HCC-44 reported_result=0.972
compound="Clc1ccc(Nc2nnc(Cc3ccncc3)c3ccccc23)cc1 [Vatalanib] + O=C(c1cc(Cc2n[nH]c(=O)c3ccccc23)ccc1F)N1CCN(C(=O)C2CC2)CC1 [Olaparib] (partner 8 µM)" tested_system=HCC-44 reported_result=0.978
compound="Clc1ccc(Nc2nnc(Cc3ccncc3)c3ccccc23)cc1 [Vatalanib] + CC(=O)Nc1cccc(-n2c(=O)n(C3CC3)c(=O)c3c(Nc4ccc(I)cc4F)n(C)c(=O)c(C)c32)c1 [Trametinib] (partner 0.02 µM)" tested_system=HCC-44 reported_result=0.959
compound="C[C@@H]1CN(CC(=O)Nc2ccc3c(c2)Cc2cccc(-c4cc(=O)cc(N5CCOCC5)o4)c2S3)C[C@H](C)O1 + C[C@@H](Oc1cc(-c2cnn(C3CCNCC3)c2)cnc1N)c1c(Cl)ccc(F)c1Cl [Crizotinib] (partner 1 µM)" tested_system=HCC-44 reported_result=0.699

Q: # return recorded relative viability for entry Clc1ccc(Nc2nnc(Cc3ccncc3)c3ccccc23)cc1 [Vatalanib] + COc1cccc2cc(-c3nc([C@H]4CC[C@H](C(=O)O)CC4)n4ncnc(N)c34)[nH]c12 [OSI-027] (partner 0.5 µM)
A: 0.438

Q: Give the measured relative viability for COc1cc(N2CCC(C(N)=O)CC2)ccc1Nc1nc(N)c(Cl)c(Nc2ccccc2S(=O)(=O)C(C)C)n1 [HG-5-88-01] + Cc1cc(Nc2cc(N3CCN(C)CC3)nc(Sc3ccc(NC(=O)C4CC4)cc3)n2)n[nH]1 [Tozasertib] (partner 0.1 µM)
A: 0.745

Q: In one line, give reported relative viability of the entry C[C@@H]1CN(CC(=O)Nc2ccc3c(c2)Cc2cccc(-c4cc(=O)cc(N5CCOCC5)o4)c2S3)C[C@H](C)O1 + COc1cccc2cc(-c3nc([C@H]4CC[C@H](C(=O)O)CC4)n4ncnc(N)c34)[nH]c12 [OSI-027] (partner 0.5 µM) .
A: 0.335

Q: Indicate the recorded relative viability value for this compound: COc1cc(N2CCC(C(N)=O)CC2)ccc1Nc1nc(N)c(Cl)c(Nc2ccccc2S(=O)(=O)C(C)C)n1 [HG-5-88-01] + Nc1ncn([C@H]2C[C@H](O)[C@@H](CO)O2)c(=O)n1 [Decitabine] (partner 2 µM)
A: 0.913

Q: Note relative viability for the compound shown: COc1cc(N2CCC(C(N)=O)CC2)ccc1Nc1nc(N)c(Cl)c(Nc2ccccc2S(=O)(=O)C(C)C)n1 [HG-5-88-01] + Nc1nc2[nH]cc(CCc3ccc(C(=O)N[C@@H](CCC(=O)O)C(=O)O)cc3)c2c(=O)[nH]1 [Pemetrexed] (partner 0.2 µM)
A: 0.538

Q: Supply recorded relative viability for COc1cc(N2CCC(C(N)=O)CC2)ccc1Nc1nc(N)c(Cl)c(Nc2ccccc2S(=O)(=O)C(C)C)n1 [HG-5-88-01] + CCNC(=O)c1noc(-c2cc(C(C)C)c(O)cc2O)c1-c1ccc(CN2CCOCC2)cc1 [Luminespib] (partner 0.01 µM) here.
A: 0.915

Q: // fetch relative viability given entry C[C@@H]1CN(CC(=O)Nc2ccc3c(c2)Cc2cccc(-c4cc(=O)cc(N5CCOCC5)o4)c2S3)C[C@H](C)O1 + CC(=O)c1c(C)c2cnc(Nc3ccc(N4CCNCC4)cn3)nc2n(C2CCCC2)c1=O [Palbociclib] (partner 0.5 µM)
A: 0.929

Q: Using known records, supply relative viability for Clc1ccc(Nc2nnc(Cc3ccncc3)c3ccccc23)cc1 [Vatalanib] + Cc1cc(Nc2cc(N3CCN(C)CC3)nc(Sc3ccc(NC(=O)C4CC4)cc3)n2)n[nH]1 [Tozasertib] (partner 0.1 µM)
A: 0.91
